assay notes: Cytotoxicity against Homo sapiens (human) HeLa cells assessed as change in cellular morphology
Assay type: cell-based
condition set: HeLa cells
quantity kind: MCC

Query string: Hello, please tell me recorded MCC for this one: `CCN(CC)CN1C(=O)/C(=N/NC(=S)Nc2ccc(OC)cc2)c2cc(Cl)ccc21`
Result string: 4 µM

Query string: Hello, please tell me recorded MCC for this one: `CCN(CC)CN1C(=O)/C(=N/NC(=S)Nc2ccccc2)c2cc(Cl)ccc21`
Result string: ≥ 20 µM

Query string: Hello, please tell me recorded MCC for this one: `CCN(CC)CN1C(=O)/C(=N/NC(=S)Nc2ccccc2)c2ccccc21`
Result string: ≥ 20 µM

Query string: Hello, please tell me recorded MCC for this one: `CCN(CC)CN1C(=O)/C(=N/NC(=S)Nc2ccc(Cl)cc2)c2ccccc21`
Result string: ≥ 4 µM

Query string: Hello, please tell me recorded MCC for this one: `CCN(CC)CN1C(=O)/C(=N/NC(=S)Nc2ccc(C)cc2)c2ccccc21`
Result string: ≥ 20 µM

----------
Test system: Influenza B virus
assay notes: Antiviral activity against Influenza B virus infected in MDCK cells assessed as reduction of virus-induced cytopathic effect after 3 days by colorimetric formazan-based MTS assay
Assay type: functional, organism-based
condition set: 72 h
pEC50: −log10 of the molar value.
quantity kind: pEC50

Query string: State recorded pEC50 with Influenza B virus, entry `NC12CC3CC(CC(C3)C1)C2` , no comment.
Result string: < 3.30

Query string: State recorded pEC50 with Influenza B virus, entry `CCN(CC)CN1C(=O)/C(=N/NC(=S)Nc2ccc(Cl)cc2)c2cc(Cl)ccc21` , no comment.
Result string: < 6.10

Query string: State recorded pEC50 with Influenza B virus, entry `CCN(CC)CN1C(=O)/C(=N/NC(=S)Nc2ccc(C)cc2)c2cc(Cl)ccc21` , no comment.
Result string: < 6.10

Query string: State recorded pEC50 with Influenza B virus, entry `CCN(CC)CN1C(=O)/C(=N/NC(=S)Nc2ccc(Cl)cc2)c2ccccc21` , no comment.
Result string: < 6.80

Query string: State recorded pEC50 with Influenza B virus, entry `CCN(CC)CN1C(=O)/C(=N/NC(=S)Nc2ccc(C)cc2)c2ccccc21` , no comment.
Result string: < 6.80

Query string: State recorded pEC50 with Influenza B virus, entry `CCN(CC)CN1C(=O)/C(=N/NC(=S)Nc2ccc(OC)cc2)c2ccccc21` , no comment.
Result string: < 6.10

Query string: State recorded pEC50 with Influenza B virus, entry `CCN(CC)CN1C(=O)/C(=N/NC(=S)Nc2ccccc2)c2ccccc21` , no comment.
Result string: < 6.80

Query string: State recorded pEC50 with Influenza B virus, entry `CCN(CC)CN1C(=O)/C(=N/NC(=S)Nc2ccccc2)c2cc(Cl)ccc21` , no comment.
Result string: < 6.10

Query string: State recorded pEC50 with Influenza B virus, entry CC(N)C12CC3CC(CC(C3)C1)C2 (stereo not drawn) , no comment.
Result string: < 4.00

Query string: State recorded pEC50 with Influenza B virus, entry `CCN(CC)CN1C(=O)/C(=N/NC(N)=S)c2cc(Cl)ccc21` , no comment.
Result string: < 4.70

Query string: State recorded pEC50 with Influenza B virus, entry `NC(=O)c1ncn([C@@H]2O[C@H](CO)[C@@H](O)[C@H]2O)n1` , no comment.
Result string: 5.08

Query string: State recorded pEC50 with Influenza B virus, entry `CCN(CC)CN1C(=O)/C(=N/NC(=S)Nc2ccc(OC)cc2)c2cc(Cl)ccc21` , no comment.
Result string: < 6.10

Query string: State recorded pEC50 with Influenza B virus, entry `CCN(CC)CN1C(=O)/C(=N/NC(N)=S)c2ccccc21` , no comment.
Result string: < 4.70
